Test: Solubility estimates in test solvents (aliquot addition, visual inspection)
Assay type: physicochemical
Conditions: organic solvent or mixture, thermodynamic from solid; solvent EtOAc; room temperature; approximate; read-out: Solubility
value_kind: solubility

(Q) Any idea what its solubility is? The molecule is Cn1c(=O)cc(N2CCC[C@@H](N)C2)n(Cc2ccccc2C#N)c1=O [Form A]
(A) < 3000 µg/mL

---

Assay: Solubility estimates in test solvents (aliquot addition, visual inspection)
Type: physicochemical
Settings: organic solvent or mixture, thermodynamic from solid; solvent MEK; room temperature; approximate; read-out: Solubility
value_kind: solubility (mg/mL)
Numbers only; they are read as mg/mL.

(Q) Which solubility reading was recorded for the compound Cn1c(=O)cc(N2CCC[C@@H](N)C2)n(Cc2ccccc2C#N)c1=O [Form A] ?
(A) 3

Reference for the values: patent US8324383B2
